# method notes: recombinant UMI read abundance after kanamycin selection (control-corrected) (log10(CPM+1)); higher = more efficient recombination; extreme values may be limits of the assay; sequences stand for … in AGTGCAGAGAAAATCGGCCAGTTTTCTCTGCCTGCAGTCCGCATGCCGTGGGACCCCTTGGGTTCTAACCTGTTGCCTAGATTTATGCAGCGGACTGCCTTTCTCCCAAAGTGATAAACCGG…AGGTTGGTTTCACT; site = the 11-nt donor;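 also: IS621 bridge recombinase in Escherichia coli cells against a fixed T5 target plasmid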
reported metric: recombinant UMI read abundance (log10)

The measured recombinant UMI read abundance (log10) associated with GGCATTTCATGGACCGGTTTTCCCGGTAATCCGTATTTGGG (site GGCATTTCTCC) reads 0

In plain terms, CAATGCCCATGGACCGGTTTTCCCGGTAATCCGTATTTGAA (site CAATGCCCTTT) has a documented recombinant UMI read abundance (log10) of 1

Recorded result, AAACAGACATGGACCGGTTTTCCCGGTAATCCGTATTTGAC (site AAACAGACTGT) , recombinant UMI read abundance (log10): 2.57

CATGTGTCATGGACCGGTTTTCCCGGTAATCCGTATTTGAC (site AATGTGTCTGT) has a reported recombinant UMI read abundance (log10) of 0

Value of recombinant UMI read abundance (log10) reported for the sequence CGATCGACATGGACCGGTTTTCCCGGTAATCCGTATTTGAT (site CGATCGACTAG) is 0

GET /value?item= AGCCTAGCATGGACCGGTTTTCCCGGTAATCCGTATTTGTC (site AGCCTAGCTAA) &field=recombinant UMI read abundance (log10) returns 0.199

Looking up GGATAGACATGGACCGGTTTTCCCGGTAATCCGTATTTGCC (site GGATATACTGG) , I found its recombinant UMI read abundance (log10) recorded as 2.8

Entry under test: CTGCTTGCATGGACCGGTTTTCCCGGTAATCCGTATTTGAT (site CTGCTTGCTAT) . Its recombinant UMI read abundance (log10) was 2.21

get_value(item= TTATGGTCATGGACCGGTTTTCCCGGTAATCCGTATTTGGC (site TTATGGTCTGC) , readout=recombinant UMI read abundance (log10)) returns 1.88

###

Kindly state recombinant UMI read abundance (log10) for each of the entries shown.
# method notes: recombinant UMI read abundance after kanamycin selection (control-corrected) (log10(CPM+1)); higher = more efficient recombination; extreme values may be limits of the assay; sequences stand for … in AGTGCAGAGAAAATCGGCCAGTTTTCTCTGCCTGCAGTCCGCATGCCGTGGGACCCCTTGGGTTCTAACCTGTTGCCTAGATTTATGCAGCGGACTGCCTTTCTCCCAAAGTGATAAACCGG…AGGTTGGTTTCACT; site = the 11-nt donor

The sequence identified as GTCCGAGCATGGACCGGTTTTCCCGGTAATCCGTATTTGCA (site GTACGAGCTTG) registered its recombinant UMI read abundance (log10) at 0

The value of recombinant UMI read abundance (log10) measured for the sequence CCCTACACATGGACCGGTTTTCCCGGTAATCCGTATTTGCT (site CTCTACACTAG) turned out to be 0.347

The reported value for ATTGAGACATGGACCGGTTTTCCCGGTAATCCGTATTTGAT (site ATTGAGACTAT) in terms of recombinant UMI read abundance (log10) is 2.01

For CTAATGACATGGACCGGTTTTCCCGGTAATCCGTATTTGAT (site CTAATGACTAT) the sequence record lists recombinant UMI read abundance (log10) as 1.69

According to the records, this sequence AGGCCTGCATGGACCGGTTTTCCCGGTAATCCGTATTTGAA (site AGGCCTGCTTT) displays recombinant UMI read abundance (log10) of 0.996

recombinant UMI read abundance (log10) reading for CACGGCCCATGGACCGGTTTTCCCGGTAATCCGTATTTGTC (site CACGGCCCTCA) : 0.166

Record CGGACTCCATGGACCGGTTTTCCCGGTAATCCGTATTTGGT (site CGGACTCCTAC) . Reported recombinant UMI read abundance (log10): 0.215

// TAAAATACATGGACCGGTTTTCCCGGTAATCCGTATTTGCA (site TAAAATACTTG) : recombinant UMI read abundance (log10) value = 0

So for ACCTAGACATGGACCGGTTTTCCCGGTAATCCGTATTTGGA (site ACCTAGACTGC) , the logged recombinant UMI read abundance (log10) turned out to be 0

###

# method notes: recombinant UMI read abundance after kanamycin selection (control-corrected) (log10(CPM+1)); higher = more efficient recombination; extreme values may be limits of the assay; sequences stand for … in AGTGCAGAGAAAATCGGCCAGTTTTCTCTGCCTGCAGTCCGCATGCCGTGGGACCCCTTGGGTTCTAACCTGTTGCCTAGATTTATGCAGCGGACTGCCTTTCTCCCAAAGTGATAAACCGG…AGGTTGGTTTCACT; site = the 11-nt donor
The threshold is inclusive: recombinant UMI read abundance (log10) of exactly 1 counts as Met; values below receive Not met.

Given the entry GGGAAGACATGGACCGGTTTTCCCGGTAATCCGTATTTGGA (site GGGAAGACTTC) , answer whether its recombinant UMI read abundance (log10) meets or surpasses 1.
Met

Item CGGAAGACATGGACCGGTTTTCCCGGTAATCCGTATTTGTT (site CGGAATCCTAA) with recombinant UMI read abundance (log10) of 1 or above?
Not met

Threshold query (recombinant UMI read abundance (log10) >= 1) on AGAAAGACATGGACCGGTTTTCCCGGTAATCCGTATTTGCG (site AGAAAGACTCG)
Met

Please indicate if the recorded recombinant UMI read abundance (log10) for CCTACTACATGGACCGGTTTTCCCGGTAATCCGTATTTGGC (site CCTAGTACTGC) meets or exceeds 1.
Not met

Could you verify whether the entry AATTTGGCATGGACCGGTTTTCCCGGTAATCCGTATTTGTG (site AATTTGGCTCA) shows recombinant UMI read abundance (log10) of no less than 1?
Not met

// inclusive: recombinant UMI read abundance (log10) at least 1? input: TTACCATCATGGACCGGTTTTCCCGGTAATCCGTATTTGAC (site TTACCATCTGT)
Met

State whether the measured recombinant UMI read abundance (log10) reaches 1, counting equality as reaching it, for ACACGAACATGGACCGGTTTTCCCGGTAATCCGTATTTGGC (site ACACGAACTGC)
Met

Reported recombinant UMI read abundance (log10) reaches at least 1 for GGTACACCATGGACCGGTTTTCCCGGTAATCCGTATTTGAC (site GGTACACCTGT) ?
Not met

Tell me whether recombinant UMI read abundance (log10) is at least 1 here: AAATAGGCATGGACCGGTTTTCCCGGTAATCCGTATTTGCC (site AAATAGGCTGG)
Met

# bool: recombinant UMI read abundance (log10) of GAAGTCACATGGACCGGTTTTCCCGGTAATCCGTATTTGGG (site CAAGTCACTCC) >= 1
Not met

Can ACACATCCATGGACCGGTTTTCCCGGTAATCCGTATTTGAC (site ACTCATCCTGT) be said to have recombinant UMI read abundance (log10) at or above 1?
Not met

# bool: recombinant UMI read abundance (log10) of TCCGCTACATGGACCGGTTTTCCCGGTAATCCGTATTTGAT (site TCCGCTACTAT) >= 1
Not met

// inclusive: recombinant UMI read abundance (log10) at least 1? input: TAAAGAGCATGGACCGGTTTTCCCGGTAATCCGTATTTGGG (site TAAGGAGCTCC)
Not met

Check this sequence for recombinant UMI read abundance (log10) at or above 1: TGCACACCATGGACCGGTTTTCCCGGTAATCCGTATTTGAC (site TGCACACCTGT)
Not met

Please check the record GAATTGACATGGACCGGTTTTCCCGGTAATCCGTATTTGAT (site GAATTGACTAT) and state if its recombinant UMI read abundance (log10) is at or above 1.
Met

Form field: recombinant UMI read abundance (log10) at least 1? Entry: CGAGGCCCATGGACCGGTTTTCCCGGTAATCCGTATTTGGG (site CGAGGACCTCC)
Not met

Assess whether reported recombinant UMI read abundance (log10) for GGAGAGACATGGACCGGTTTTCCCGGTAATCCGTATTTGCC (site GGAAAGACTGG) sits at 1 or higher.
Not met

Quick check, recombinant UMI read abundance (log10) >= 1? TGAGTTGCATGGACCGGTTTTCCCGGTAATCCGTATTTGCA (site TGAGTTGCTTG)
Met

###

# method notes: recombinant UMI read abundance after kanamycin selection (control-corrected) (log10(CPM+1)); higher = more efficient recombination; extreme values may be limits of the assay; sequences stand for … in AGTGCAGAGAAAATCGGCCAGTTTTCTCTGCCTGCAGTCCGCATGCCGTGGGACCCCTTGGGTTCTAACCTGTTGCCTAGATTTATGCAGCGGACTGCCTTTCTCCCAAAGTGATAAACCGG…AGGTTGGTTTCACT; site = the 11-nt donor
Tag: Fulfilled if measured recombinant UMI read abundance (log10) is not below 0.008, Not fulfilled if it is.

Say whether GAGCAATCATGGACCGGTTTTCCCGGTAATCCGTATTTGTT (site GAGCAATCTAA) shows recombinant UMI read abundance (log10) of 0.008 or more.
Fulfilled

For this sequence, is measured recombinant UMI read abundance (log10) 0.008 or higher? AGCCTAGCATGGACCGGTTTTCCCGGTAATCCGTATTTGAT (site AGCCTAGCTAA)
Fulfilled

For this sequence, is measured recombinant UMI read abundance (log10) 0.008 or higher? ATAATGCCATGGACCGGTTTTCCCGGTAATCCGTATTTGAC (site ATAACGCCTGT)
Fulfilled

Determine whether measured recombinant UMI read abundance (log10) meets or exceeds 0.008 for CGGAACGCATGGACCGGTTTTCCCGGTAATCCGTATTTGTT (site CGGAACGCTAA)
Fulfilled

Hello, I need to know if CTTCTACCATGGACCGGTTTTCCCGGTAATCCGTATTTGCT (site CTCCTACCTAG) has measured recombinant UMI read abundance (log10) not below 0.008. Thanks!
Not fulfilled

Given the entry TCGTCTACATGGACCGGTTTTCCCGGTAATCCGTATTTGAT (site TCGTCTACTAT) , answer whether its recombinant UMI read abundance (log10) meets or surpasses 0.008.
Not fulfilled

Hi, just wondering whether CGGAATCCATGGACCGGTTTTCCCGGTAATCCGTATTTGCA (site CGGAATCCTAA) shows recombinant UMI read abundance (log10) of 0.008 or higher.
Not fulfilled

Can TCGAGTCCATGGACCGGTTTTCCCGGTAATCCGTATTTGGC (site TCGAGTCCTGC) be said to have recombinant UMI read abundance (log10) at or above 0.008?
Not fulfilled

Is it the case that CGGAAGACATGGACCGGTTTTCCCGGTAATCCGTATTTGTT (site CGGAAGACTAA) has recombinant UMI read abundance (log10) reaching or exceeding 0.008?
Fulfilled

Can CTTTTCTCATGGACCGGTTTTCCCGGTAATCCGTATTTGTA (site CTTATCTCTTA) be said to have recombinant UMI read abundance (log10) at or above 0.008?
Not fulfilled

Does the reported recombinant UMI read abundance (log10) for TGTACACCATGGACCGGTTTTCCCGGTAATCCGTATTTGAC (site TGTGCACCTGT) fall at or above the 0.008 mark?
Not fulfilled

Would you say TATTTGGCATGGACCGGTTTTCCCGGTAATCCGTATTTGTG (site TATTTGGCTGA) shows recombinant UMI read abundance (log10) at minimum 0.008?
Not fulfilled

Hi team, for GACGTCTCATGGACCGGTTTTCCCGGTAATCCGTATTTGGA (site GACGTCTCTTC) , is the recorded recombinant UMI read abundance (log10) at or above 0.008?
Fulfilled

Item GGAATGGCATGGACCGGTTTTCCCGGTAATCCGTATTTGGT (site GGACTGGCTAC) with recombinant UMI read abundance (log10) of 0.008 or above?
Not fulfilled

Given the entry CATGTAACATGGACCGGTTTTCCCGGTAATCCGTATTTGCT (site CATGTAACTAG) , answer whether its recombinant UMI read abundance (log10) meets or surpasses 0.008.
Fulfilled

Please indicate if the recorded recombinant UMI read abundance (log10) for CCAGCAGCATGGACCGGTTTTCCCGGTAATCCGTATTTGCT (site CGAGCAGCTAG) meets or exceeds 0.008.
Not fulfilled

Determine whether measured recombinant UMI read abundance (log10) meets or exceeds 0.008 for GTGCATGCATGGACCGGTTTTCCCGGTAATCCGTATTTGGC (site GTGCATGCTAC)
Fulfilled

# check: recombinant UMI read abundance (log10) of CAGTCGGCATGGACCGGTTTTCCCGGTAATCCGTATTTGGG (site CAGTCGCCTCC) is greater than or equal to 0.008
Fulfilled
